test system: rice (Diamant variety); experiment: Rice seed treatment with BHMPA salts: germinating power; format: in vivo; conditions: rice seeds; solution concentration 1 · 10^−9%
measurement.name: Mass, dry, root (g/100 plantlings)
Number in g/100 plantlings, nothing else.

## Task For O.O.O=P([O-])(CO)CO.O=P([O-])(CO)CO.[Co+2] [Co-salt, Cobalt BHMPA Salt] , what is its reported Mass, dry, root?
## Result 0.26

## Task Please look up its Mass, dry, root: O=P([O-])(CO)CO.O=P([O-])(CO)CO.[Mg+2] [Mg-salt, Magnesium BHMPA Salt]
## Result 0.29

## Task Looking for the measured Mass, dry, root of O=P([O-])(CO)CO.O=P([O-])(CO)CO.[Ca+2] [Ca-salt, Calcium BHMPA Salt] , can you help?
## Result 0.30

## Task Mass, dry, root for O.O.O=P([O-])(CO)CO.O=P([O-])(CO)CO.[Mn+2] [Mn-salt, Manganese BHMPA Salt] ?
## Result 0.32

## Task Item O=P([O-])(CO)CO.[Na+] [Na-salt, Sodium BHMPA Salt] has what recorded Mass, dry, root?
## Result 0.25
